# Tested On: Shiga toxin 2 (Escherichia coli O157:H7) (UniProt P09385+P09386)
# Protocol Details: E. coli 0.157:H7 Shiga Toxin SOP - stx2 screening assay
# Format: functional
# Parameters: scale not given: direction of the effect not stated beside the values
# Experimental Context: 30 µM
Measured Metric: Percent Effect
Remember to quote the unit after the number.

Look over these answered cases.
COCC(=O)N1CCN(C(=O)c2scnc2C)CC1    -11%
CNC(=O)CN1CCCC12CCN(C(=O)c1ccsc1)CC2    -0.413%
CS(=O)(=O)N1CCc2nc(NC(=O)Nc3c(F)cccc3F)sc2C1    4.52%
c1cncc(OC[C@]23COC[C@H]2CN(Cc2cccs2)C3)c1    -3%
CC(C)C(=O)N1CCCC(c2cc(C(F)F)n3ncnc3n2)C1 (stereo unspecified)    -11.7%

**Query** Please report the measured Percent Effect for "COc1ccc(C(=O)Nc2cnn(CC(=O)NC3CCCC3)c2)c(O)c1"
**Result** -54.5%

**Query** Please report the measured Percent Effect for "O=C(CC1CC1)NCc1cn2c(n1)CN(C(=O)c1cccnc1)CC2"
**Result** -29.1%

**Query** Please report the measured Percent Effect for Cc1cc(C[S+]([O-])CC(=O)NCc2cccs2)no1 (stereo unspecified)
**Result** 9.34%

**Query** Please report the measured Percent Effect for "O=C(CCN1CCCC1=O)NCc1cccnc1Oc1ccccc1"
**Result** 8.3%

**Query** Please report the measured Percent Effect for "O[C@]1(c2ccccn2)CC[C@@H]2CN(Cc3cccc4ncccc34)C[C@@H]21"
**Result** -21.3%

**Query** Please report the measured Percent Effect for "COCCN1CCC2(CC1)CN(C(=O)N(C)C)c1ccc(C)cc12"
**Result** -2.72%
